target: Telomerase reverse transcriptase (Homo sapiens, UniProt O14746); test: Inhibition of telomerase in human MGC803 cells after 24 hrs by TRAP-PCR-ELISA method
Sequence (O14746 whole entry): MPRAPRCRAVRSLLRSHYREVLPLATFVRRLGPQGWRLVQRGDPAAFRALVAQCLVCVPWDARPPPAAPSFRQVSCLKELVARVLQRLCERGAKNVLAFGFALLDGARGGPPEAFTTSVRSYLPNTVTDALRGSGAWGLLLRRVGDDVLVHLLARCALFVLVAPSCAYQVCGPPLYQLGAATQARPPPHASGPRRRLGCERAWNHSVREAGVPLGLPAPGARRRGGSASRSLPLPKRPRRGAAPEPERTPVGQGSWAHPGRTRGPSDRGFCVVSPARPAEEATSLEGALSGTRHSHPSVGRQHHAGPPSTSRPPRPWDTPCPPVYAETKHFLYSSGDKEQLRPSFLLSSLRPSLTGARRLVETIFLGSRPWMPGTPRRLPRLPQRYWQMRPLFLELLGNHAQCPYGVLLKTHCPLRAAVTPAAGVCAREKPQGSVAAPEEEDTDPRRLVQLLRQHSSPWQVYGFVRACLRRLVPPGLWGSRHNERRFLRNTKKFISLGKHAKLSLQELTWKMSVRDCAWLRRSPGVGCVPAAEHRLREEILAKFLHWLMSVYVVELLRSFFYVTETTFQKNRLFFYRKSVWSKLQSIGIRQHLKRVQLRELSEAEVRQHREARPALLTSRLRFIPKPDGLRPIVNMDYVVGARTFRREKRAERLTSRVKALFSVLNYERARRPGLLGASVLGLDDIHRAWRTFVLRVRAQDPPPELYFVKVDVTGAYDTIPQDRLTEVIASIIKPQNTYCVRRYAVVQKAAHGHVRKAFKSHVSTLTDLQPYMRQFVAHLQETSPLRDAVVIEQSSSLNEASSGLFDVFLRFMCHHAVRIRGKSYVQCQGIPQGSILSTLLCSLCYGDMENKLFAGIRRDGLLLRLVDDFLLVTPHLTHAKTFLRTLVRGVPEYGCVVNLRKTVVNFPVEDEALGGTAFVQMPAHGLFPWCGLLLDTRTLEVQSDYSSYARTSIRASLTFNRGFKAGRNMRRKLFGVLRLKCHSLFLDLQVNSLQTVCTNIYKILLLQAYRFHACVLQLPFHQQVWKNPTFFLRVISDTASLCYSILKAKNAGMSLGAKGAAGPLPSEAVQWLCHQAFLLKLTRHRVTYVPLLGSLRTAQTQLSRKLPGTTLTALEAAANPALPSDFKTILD
reported endpoint: IC50 (µM)
# value in µM; strip the unit string

Look over these answered cases.
molecule="CC[n+]1c(-c2ccccc2)c2cc(N)ccc2c2ccc(N)cc21 [HOMIDIUM BROMIDE]" unit_label=µM measured=2.18
molecule="CC1=NN(C(=O)c2ccc(F)cc2)C(c2ccccc2O)C1 (stereo unspecified)" unit_label=µM measured=29.8
molecule="CC1=NN(C(=O)CF)C(c2ccccc2O)C1 (stereo unspecified)" unit_label=µM measured=4

Ask: Give reported IC50 value for COc1ccc(C(=O)N2N=C(C)CC2c2ccccc2O)cc1 (stereo unspecified)
Result: 25

Ask: Give reported IC50 value for CC1=NN(C(=O)C(F)(F)F)C(c2ccccc2O)C1 (stereo unspecified)
Result: 1.86

The measurements presented in this section are drawn from ChEMBL document CHEMBL3779782.
